B1: PDLIM4 (parent)
chain: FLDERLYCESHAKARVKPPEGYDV

# Variants of: B1
# protocol_summary: protein stability index of a GFP-peptide fusion (GPS, HEK-293T) (PSI 1-6); higher = more stable;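 note: lentivirally expressed fusions sorted by FACS into six bins by GFP to DsRed ratio, PSI derived from sequencing read proportions per bin multiplied by bin number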
# assay_conditions: c terminus: a fixed tail appended
Assign class by protein stability index: not lower than 2 means 1; lower than 2 means -1.

Worked cases, answers included:
- mutant_designation: "L2Q"
  group: 1
- mutant_designation: "P19E"
  group: -1
- mutant_designation: "E4S"
  group: 1

Proceed to the following item.
Does the reported protein stability index for `E20I` fall at or above the 2 mark?
1

Source: the supplement of paper PMC10567573
